Taken from PubChem BioAssay (NCATS).

Test: Cell Viability - LYMP2-005 (AID 967);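 note: cells exposed to compound for 24 h at 37 °C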
Settings: LYMP2-005 lymphoblastoid cell viability; series mostly up to 92.2 µM
Source text: NIH Chemical Genomics Center [NCGC] NIH Molecular Libraries Screening Centers Network [MLSCN] National Institutes of Environmental Health Sciences [NIEHS] National Toxicology Program [NTP] We have developed a 1536-well cell-based assay for quantitative high throughput screening (qHTS) against a number of cell lines to determine in vitro cytotoxicity of small molecules. […] 8. Detection; Luminescence; Viewlux plate reader […]
Results filed as inconclusive are left out. Activity calls are given as the source filed them. Calls come from the whole dose curve; as a rule, active = well fitted cell-killing curve with a large enough effect; inconclusive = small, poorly fitted or top-dose-only effect, or effect the other way; inactive = no such curve, though single readings can be large or run the other way.
Respond using exactly one of the listed classes: active, inactive

Past entries and their recorded results:
Prompt: What classification did CC/C(=C(\c1ccccc1)c1ccc(OCCN(C)C)cc1)c1ccc(O)cc1 end up with in this test?
Completion: active

Prompt: What classification did FC(F)(F)c1ccc(Cl)cc1 end up with in this test?
Completion: inactive

Prompt: What classification did Clc1ccc(C(c2ccc(Cl)cc2)C(Cl)Cl)cc1 end up with in this test?
Completion: inactive

Prompt: What classification did N#CC(Cl)Cl end up with in this test?
Completion: inactive

More entries:
Prompt: What classification did CC(C)CC(C)Nc1ccc(Nc2ccccc2)cc1 (stereo not given) end up with in this test?
Completion: active

====

assay: Cell Viability - LYMP2-010 (AID 981); conditions: LYMP2-010 lymphoblastoid cell viability, qHTS; series mostly up to 92.2 µM;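 note: cells exposed to compound for 24 hours at 37 °C; nearly all actives have a fitted effect of over 55% in size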
Inconclusive results are not listed. Active and inactive are the calls of the source. Calls follow the shape of the dose curve; as a rule, active = well fitted cell-killing curve with a large enough effect; inconclusive = small, poorly fitted or top-dose-only effect; inactive = flat fitted curve, though single readings scatter.
Respond using exactly one of the listed classes: 1.0 (active), 0.0 (inactive)

Prompt: What classification did [Cd+2].[Cl-].[Cl-] end up with in this test?
Completion: 1.0

Prompt: What classification did Nc1ccccc1C(=O)OCCc1ccccc1 end up with in this test?
Completion: 0.0

Prompt: What classification did C[C@@H]1CC[C@@]2(OC1)O[C@H]1[C@@H](O)[C@H]3[C@@H]4CC[C@H]5C[C@@H](O[C@@H]6O[C@H](CO)[C@H](O[C@@H]7O[C@H](CO)[C@@H](O)[C@H](O[C@@H]8OC[C@@H](O)[C@H](O)[C@H]8O)[C@H]7O[C@@H]7O[C@H](CO)[C@@H](O)[C@H](O[C@@H]8O[C@H](CO)[C@@H](O)[C@H](O)[C@H]8O)[C@H]7O)[C@H](O)[C@H]6O)[C@H](O)C[C@]5(C)[C@H]4CC[C@]3(C)[C@H]1[C@@H]2C end up with in this test?
Completion: 1.0

Prompt: What classification did OC(c1ccc(Cl)cc1)(c1ccc(Cl)cc1)C(Cl)(Cl)Cl end up with in this test?
Completion: 0.0

Prompt: What classification did O=Nc1ccc(Nc2ccccc2)cc1 end up with in this test?
Completion: 1.0

====

Biological target: Bile acid receptor (Homo sapiens)
Assay: qHTS assay for small molecule agonists of farnesoid X receptor signaling (AID 588527);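 note: 0% = vehicle basal and 100% = reference agonist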
Conditions: HEK293T FXR-UAS-bla, beta-lactamase ratio, 16 h; hits give high values
From the text: NIH Chemical Genomics Center [NCGC] U.S. Environmental Protection Agency [EPA] National Institutes of Environmental Health Sciences [NIEHS] National Toxicology Program [NTP] […] NCGC Assay Protocol Summary Using a beta-lactamase reporter-gene under control of Farnesoid X receptor (FXR) response element, a cell-based assay [GeneBLAzer FXR-UAS-bla assay developed by Invitrogen] was used to measure FXR ligands signaling. […] Detection; Fluorescence; Envision plate reader
Records with an inconclusive call do not appear.
READOUT LABEL: activation (%)
One number for each entry, in %.

Use the examples below as a reference point.
Prompt: Quick one: activation of Nc1c(N=Nc2ccc(S(=O)(=O)CCOS(=O)(=O)O)cc2)c(S(=O)(=O)O)cc2cc(S(=O)(=O)O)c(N=Nc3ccc(S(=O)(=O)CCOS(=O)(=O)O)cc3)c(O)c12 ?
Completion: 4.58

Prompt: Quick one: activation of CNC(=O)/C=C(\C)OP(=O)(OC)OC ?
Completion: 6.76

Prompt: Quick one: activation of O=S(c1ccc(Cl)cc1)c1cc(Cl)c(Cl)cc1Cl (stereo not drawn) ?
Completion: 0.155

Prompt: Quick one: activation of CC(C)(C)N(NC(=O)c1ccc(Cl)cc1)C(=O)c1ccccc1 ?
Completion: 5.56

Prompt: Quick one: activation of CCCCOCCOC(C)=O ?
Completion: 1.59

Prompt: Quick one: activation of Oc1ccc2ccccc2c1N=Nc1ccccc1 ?
Completion: 3.78

Prompt: Quick one: activation of CCC(C)(NC(=O)c1cc(Cl)c(C)c(Cl)c1)C(=O)CCl (stereo not drawn) ?
Completion: -3.52

Prompt: Quick one: activation of CCOP(=S)(OCC)Oc1ncn(-c2ccccc2)n1 ?
Completion: 2.14

// each compound listed below needs its activation
1. Cc1nc2ccc(Cl)cc2[nH]1
2. Cc1cc(C)nc(NC(=O)NS(=O)(=O)c2ccccc2C(=O)OC2COC2)n1
3. CCNc1cc(O)ccc1C
4. CC(C)c1ccccc1
5. CCCOCC(=Nc1ccc(Cl)cc1C(F)(F)F)n1ccnc1
6. CNC(=O)c1ccccc1
7. C=C1C[C@]23C[C@@]1(O)CC[C@H]2[C@@]12C=C[C@H](O)[C@@](C)(C(=O)O1)[C@H]2[C@@H]3C(=O)O

Completion:
1: -1.36; 2: 1.23; 3: 2; 4: -3.82; 5: -0.0346; 6: 3.12; 7: 0.442

// each compound listed below needs its activation
1. COP(=O)(OC)Oc1nc(Cl)c(Cl)cc1Cl
2. CC(C)(C)C(=O)C1C(=O)c2ccccc2C1=O
3. O=S(=O)(O)c1ccc(N=Nc2cc(S(=O)(=O)O)c3ccccc3c2O)c2ccccc12

Completion:
-2.92
1.07
2.06

====

test: qHTS assay for small molecule agonists of the antioxidant response element (ARE) signaling pathway measured by Nrf2-dependant transcriptional activity - cell viability counter screen (AID 720653); conditions: ARE-bla HepG2 viability, CellTiter-Glo ATP luminescence, 16 h; hits give low values; note: % is set by controls: 0 for no effect and ±100 for the full control effect
Results filed as inconclusive are left out.
READOUT LABEL: max response (%)
Answers are plain numbers, in %.

Use the examples below as a reference point.
Prompt: Quick one: max response of O=C(O)C(F)(F)C(F)(F)C(F)(F)C(F)(F)C(F)(F)F ?
Completion: 3.24

Prompt: Quick one: max response of CC1(C)[C@H](C(=O)O[C@H](C#N)c2cccc(Oc3ccccc3)c2)[C@@H]1C=C(Br)Br ?
Completion: -10.6

Prompt: Quick one: max response of CCC/C(=N\OCC)C1=C(O)CC(CC(C)SCC)CC1=O (stereo unspecified) ?
Completion: -2.32

Prompt: Quick one: max response of CC(C)(C)OOC(C)(C)c1ccc(C(C)(C)OOC(C)(C)C)cc1 ?
Completion: -7.74

Prompt: Quick one: max response of ClC1=C(Cl)[C@]2(Cl)[C@H]3[C@H]([C@@H]4C=C[C@H]3C4)[C@]1(Cl)C2(Cl)Cl ?
Completion: -24.6

Prompt: Quick one: max response of CC(C)=CC1[C@H](C(=O)OCc2cccc(Oc3ccccc3)c2)C1(C)C (stereo partly specified) ?
Completion: -3.94

// each molecule listed below needs its max response
1. CC1(C(=O)Nc2ccc(O)c(Cl)c2Cl)CCCCC1
2. CCOP(=S)(OCC)SCCl
3. C=C(C)CN(CC)c1c([N+](=O)[O-])cc(C(F)(F)F)cc1[N+](=O)[O-]
4. C1=Cc2cccc3cccc1c23
5. CCOP(=S)(OCC)SC(CCl)N1C(=O)c2ccccc2C1=O (stereo unspecified)
6. CC1(c2ccc(Oc3ccccc3)cc2)OC(=O)N(Nc2ccccc2)C1=O (stereo unspecified)

Completion:
1. 4.3
2. -13.5
3. 5.45
4. -6.24
5. -13.6
6. -28.5

====

Give measured activation for each item. Keep answers brief.
target: Bile acid receptor (Homo sapiens) (UniProt Q96RI1); assay: qHTS assay for small molecule agonists of farnesoid X receptor signaling (AID 588527); details: HEK293T FXR-UAS-bla, beta-lactamase ratio, 16 h; hits give high values;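 note: 0% = vehicle basal and 100% = reference agonist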
Sequence (Q96RI1 whole entry, looked up): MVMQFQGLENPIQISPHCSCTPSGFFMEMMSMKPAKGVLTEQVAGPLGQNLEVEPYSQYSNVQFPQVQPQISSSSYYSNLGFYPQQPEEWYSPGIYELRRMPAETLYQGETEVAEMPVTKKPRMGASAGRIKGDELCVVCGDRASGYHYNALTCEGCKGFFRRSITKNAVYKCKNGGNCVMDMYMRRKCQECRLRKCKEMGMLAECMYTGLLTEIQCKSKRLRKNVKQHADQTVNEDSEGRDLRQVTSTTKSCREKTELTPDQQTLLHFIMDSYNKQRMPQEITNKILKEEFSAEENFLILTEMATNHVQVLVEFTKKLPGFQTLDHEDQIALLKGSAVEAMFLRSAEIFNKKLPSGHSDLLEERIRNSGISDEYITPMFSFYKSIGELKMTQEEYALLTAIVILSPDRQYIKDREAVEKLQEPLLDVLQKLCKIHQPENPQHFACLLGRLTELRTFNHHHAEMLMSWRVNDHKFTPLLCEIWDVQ
Inconclusive results are not listed.
Give bare numbers, in %.

Prompt: Record Cc1cccc([N+](=O)[O-])c1C(=O)O : what is its activation with Bile acid receptor (Homo sapiens) (UniProt Q96RI1)?
Completion: -1.22

Prompt: Record O=c1oc2cc(O)ccc2c2oc3cc(O)ccc3c12 : what is its activation with Bile acid receptor (Homo sapiens) (UniProt Q96RI1)?
Completion: 8.73

Prompt: Record CCCCC(CC)COP(=O)(OCC(CC)CCCC)OCC(CC)CCCC (stereo unspecified) : what is its activation with Bile acid receptor (Homo sapiens) (UniProt Q96RI1)?
Completion: -0.972

Prompt: Record CC(C)CCCCCCOC(=O)c1ccccc1C(=O)OCCCCCCC(C)C : what is its activation with Bile acid receptor (Homo sapiens) (UniProt Q96RI1)?
Completion: 0.284

// each molecule listed below needs its activation
1. Cc1c(C(=O)O)cccc1[N+](=O)[O-]
2. CCCCCCCCCC[N+](C)(C)Cc1ccccc1

Completion:
-2.92
3.15

// each molecule listed below needs its activation
1. C=CCCCCCC
2. C=C[Si](OCCOC)(OCCOC)OCCOC
3. COC(=O)c1cccc(C)c1S(=O)(=O)NC(=O)Nc1nc(OCC(F)(F)F)nc(N(C)C)n1
4. Clc1ccc(C(c2ccc(Cl)cc2)C(Cl)Cl)cc1
5. CCC(=O)/C=C/C1C(C)=CCCC1(C)C (stereo unspecified)
6. CCC(C)(C)OC
7. CC/C(=C(\c1ccccc1)c1ccc(OCCN(C)C)cc1)c1ccc(O)cc1
8. COc1ccc(N)c(C)c1

Completion:
1: -0.782; 2: -1.57; 3: -2.17; 4: 3.84; 5: -0.845; 6: 0.74; 7: 1.2; 8: -1.77

// each molecule listed below needs its activation
1. CO[Si](CCCOCC1CO1)(OC)OC (stereo unspecified)
2. COP(=S)(OC)Oc1ccc([N+](=O)[O-])c(C)c1

Completion:
[-0.427, 2.17]

// each molecule listed below needs its activation
1. CCC[CH2][Sn]([Cl])([CH2]CCC)[CH2]CCC
2. CCCCC(CC)COP(=O)(O)OCC(CC)CCCC (stereo unspecified)
3. Cc1c(C(=O)O)c(O)cc2c1C(=O)c1c(O)c([C@H]3O[C@H](CO)[C@@H](O)[C@H](O)[C@H]3O)c(O)c(O)c1C2=O
4. O=C(O)C1(C(=O)Nc2ccc(Cl)cc2Cl)CC1
5. CN(c1c(Br)cc(Br)cc1Br)c1c([N+](=O)[O-])cc([N+](=O)[O-])cc1C(F)(F)F
6. C=CCCCCCCC=C

Completion:
7.19
-0.5
-1.49
-11.8
1.9
-0.711

// each molecule listed below needs its activation
1. C[Si]1(C)O[Si](C)(C)O[Si](C)(C)O[Si](C)(C)O1
2. CCCCC

Completion:
-3.3
-0.0908

// each molecule listed below needs its activation
1. OC1CCC(C2CCCCC2)CC1 (stereo unspecified)
2. Cc1ccc(CO)cc1
3. CC(=O)CC(C)C
4. CC(Cl)(Cl)C(=O)OCCOc1cc(Cl)c(Cl)cc1Cl
5. CCOP(=O)(O)C(N)=O
6. O=C(O)CCCCCCCCC(=O)O

Completion:
1. 0.637
2. -3.46
3. -0.151
4. 0.229
5. 3.28
6. -3.53

// each molecule listed below needs its activation
1. CCCCOCC(C)OCC(C)O (stereo unspecified)
2. CCC(C)Nc1ccc(NC(C)CC)cc1 (stereo unspecified)
3. Cc1ccccc1OCC1CO1 (stereo unspecified)
4. CCCCCCCCCc1ccccc1

Completion:
1. 5.12
2. -2.74
3. -1.27
4. 2.7

// each molecule listed below needs its activation
1. c1ccc(COCc2ccccc2)cc1
2. CCCCN(CC)C(=O)SCCC
3. C1OCOCO1

Completion:
1. -1.69
2. 3.83
3. -0.63
